Test system: L. tropica promastigotes
METHOD SUMMARY: Antileishmanial activity on L. tropica promastigotes (MTT)
Assay type: cell-based, Leishmania tropica
DETAILS: Leishmania tropica, 72 h, read-out: IC50 (µM) L. tropica
Can you tell me IC50 for the items I'm about to list?
Answers are plain numbers, in µM.

Solved entries:
COc1ccc(Cc2nc3cc(C(C)=O)ccc3n2C[C@@H]2CCCN3CCCC[C@H]23)cc1: 23.9
O=[N+]([O-])c1ccc2c(c1)nc(Cc1ccccc1)n2C[C@@H]1CCCN2CCCC[C@H]12: 7.22
COc1ccc(Cc2nc3cc([N+](=O)[O-])ccc3n2C[C@@H]2CCCN3CCCC[C@H]23)cc1: 3.44

Please find the next compound below.
Can you share its IC50? I mean this compound: `O=[N+]([O-])c1ccc2c(c1)nc(Cc1ccc(Cl)cc1)n2C[C@@H]1CCCN2CCCC[C@H]12` 3.92
